Target: MCR1 (human, UniProt Q01726 1-317)
Sequence (Q01726 whole entry): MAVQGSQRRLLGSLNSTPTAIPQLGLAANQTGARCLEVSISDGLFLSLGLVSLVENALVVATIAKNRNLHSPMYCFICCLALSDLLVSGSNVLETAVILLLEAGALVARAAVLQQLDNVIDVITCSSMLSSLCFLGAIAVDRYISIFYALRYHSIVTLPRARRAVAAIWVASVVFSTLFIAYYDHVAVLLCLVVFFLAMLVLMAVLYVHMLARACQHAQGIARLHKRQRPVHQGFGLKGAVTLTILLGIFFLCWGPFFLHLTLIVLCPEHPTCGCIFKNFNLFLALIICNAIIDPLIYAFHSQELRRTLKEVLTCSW
Experiment: cell-based or functional assay
Square brackets hold non-standard residues; d marks the D form. Ends that are not written are not given here. Nle = CCCC[C@H](N)C(=O)O
measure: MCR1 EC50 (nM); cAMP production, LANCE cAMP assay, CHO-MCR1 cells, cell pool C
Reply with just the number (in nM).

Below, 3 binders whose answers are already recorded.
- SYSMEHFRWGKPVGKKRRAVKVYPGGGSSYS[Nle]EH[dF]RWGKPV [ACTH1-24-point-5-4aa-NDP-α-MSH]: 0.32
- SYSMEHFRWGKPVGKKRRPVKVYPGGGSSYS[Nle]EH[dF]RWGKPV (ends and bridges not checked) [ACTH1-24-4aa-NDP-α-MSH]: 0.41
- SYSMEHFRWGKPVGKKRRPVKVYPGGGGSGGSYS[Nle]EH[dF]RWGKPV (ends and bridges not checked) [ACTH1-24-7aa-NDP-α-MSH]: 0.24

Kindly review the next binder as well.
(Q) Field request: MCR1 EC50 (nM); cAMP production, LANCE cAMP assay, CHO-MCR1 cells, cell pool C | item: SYSMEHFRWGKPVGKKRRAVKVYPGGGGSGGGGSSYS[Nle]EH[dF]RWGKPV [ACTH1-24-point-5-10aa-NDP-α-MSH]
(A) 0.69

Numbers sourced from patent US20190054150A1.
